System: Isolated Cat Papillary Muscle
Assay: Test for Cardiotonic Activity in Isolated Cat Papillary Muscle
Assay type: cell-based
Conditions: Felis catus, increase in force of contraction, stimulated at 0.5 Hz, 37° C.
pEC50: −log10 of the molar value.
measure_name: pEC50

Cc1nc(O)c(C(C)C)c(NCc2cccnc2)n1 5.13
Cc1nc(O)c(Br)c(NCc2cccnc2)n1 5.60
CCNc1nc(C)nc(O)c1C 5.30

(A) Cc1nc(O)c(Cl)c(NCCc2ccccc2)n1
(B) Cc1nc(O)c(C)c(NCc2ccco2)n1
Q: Please let me know which one, A or B , has a lower measured pEC50 value. Give the label of your selection.
A: B

(a) Cc1nc(=O)c(C)c(NCc2cccnc2)[nH]1
(b) CCNc1[nH]c(C)nc(=O)c1Br
(c) Cc1nc(O)c(Cl)c(NCc2cccnc2)n1
Q: Form: Sort by [pEC50] Order [ ascending ] Write the labels in rank order as requested.
A: a, b, c

(1) Cc1nc(O)c(Br)c(NCCO)n1
(2) Cc1nc(O)c(C)c(NCC2CC2)n1
Q: Just tell me: smaller pEC50 value, 1 or 2 ? Kindly state the label of the option you pick.
A: 1
(1: 5.09, 2: 5.43)
